tested on: Es-2; assay: Primary qHTS to identify gynecologic anti-cancer compounds using libraries of approved drugs and bioactive compounds (AID 1345084); details: Gynecologic cancer cell panel viability, ATPlite luminescence, 48 h; series mostly up to 57.5 µM; note: nearly all actives have a fitted effect of over 55% in size; note: potency is the fitted concentration of half-maximal effect
Results filed as inconclusive are left out. Active and inactive are the calls of the source. Calls come from the whole dose curve; as a rule, active = well fitted cell-killing curve with a large enough effect; inconclusive = small, poorly fitted or top-dose-only effect, or effect the other way; inactive = flat fitted curve, though single readings scatter.
Readout: Potency

# Compound, Measured on, Readout, Result
rows = [
    ("CC1=CC(=O)[C@@H](O)[C@]2(C)C3[C@@H](O)[C@@H]4OC(=O)[C@@H]([C@H]4C)[C@]3(C)C(=O)C[C@@H]12 (stereo partly specified)", "Es-2", "Potency", "8.91 µM (active)"),
    ("CN1CN(c2ccccc2)C2(CCN(CCCC(=O)c3ccc(F)cc3)CC2)C1=O", "Es-2", "Potency", "inactive"),
    ("CCC1CN2CCC3(C(=O)Nc4cccc(O)c43)C2CC1/C(=C/OC)C(=O)OC (stereo unspecified)", "Es-2", "Potency", "inactive"),
    ("CN1CCc2cc3c(cc2[C@H]1[C@@H]1OC(=O)c2c1ccc1c2OCO1)OCO3", "Es-2", "Potency", "inactive"),
    ("CO[C@@H]1[C@@H](O)[C@@H](O[C@H]2CC[C@]3(C=O)C4CC[C@]5(C)[C@@H](C6=CC(=O)OC6)CC[C@]5(O)[C@@H]4CC[C@H]3C2)O[C@@H](C)[C@H]1O[C@@H]1O[C@H](CO[C@@H]2O[C@H](CO)[C@@H](O)[C@H](O)[C@H]2O)[C@@H](O)[C@H](O)[C@H]1O (stereo partly specified)", "Es-2", "Potency", "2 µM (active)"),
]

As a next step, examine the compound that follows.
Report Potency for C[C@@H]1C[C@@H](O)[C@]2(O)O[C@@H]3C[C@@]4(C=O)C(CC[C@@H]5C4CC[C@]4(C)[C@@](O)(C6=CC(=O)OC6)CC[C@]54O)C[C@H]3OC2O1 (stereo partly specified) please. 3.55 µM (active)

====

experiment: qHTS for differential inhibitors of proliferation of Plasmodium falciparum line 3D7 (AID 1876); note: potency is the fitted concentration of half-maximal effect; conditions: P. falciparum 3D7 proliferation inhibition; series mostly up to 28.7 µM
Records with an inconclusive call do not appear. The source made the active and inactive calls. Calls come from the whole dose curve; as a rule, active = well fitted curve in the direction sought with a large enough effect; inconclusive = small, poorly fitted or top-dose-only effect, or another doubt; inactive = no such curve, though single readings can be large or run the other way.
Readout: Potency

Known Potency results, listed for orientation:
# Compound, Potency
records = [
    ("C[N+]1(C)CCc2cc3c(cc2C1C1OC(=O)c2c1ccc1c2OCO1)OCO3 (stereo unspecified)", "8.91 µM (active)"),
    ("NO", "12.6 µM (active)"),
    ("CC(=O)OCC1=C(C(=O)[O-])N2C(=O)[C@@H](NC(=O)CCC[C@@H](N)C(=O)[O-])[C@H]2SC1.[Zn+2]", "inactive"),
    ("COc1ccc(CCN)cc1O", "inactive"),
    ("CN1CCN(c2ccc3ccccc3n2)CC1", "inactive"),
]

Report Potency for COC(=O)c1cc2c(cn1)[nH]c1ccccc12 please. inactive

Report Potency for CC(O)C(C)OC(=O)[C@@H]1C[C@@H]2c3cccc4c3c(cn4C(C)C)C[C@H]2N(C)C1 (stereo partly specified) please. 12.6 µM (active)

Report Potency for COc1ccc2[nH]cc(CCN(C)C)c2c1 please. inactive

Report Potency for CN1CCc2cc(O)cc3c2C1Cc1ccc(O)c(O)c1-3 (stereo unspecified) please. 11.2 µM (active)

Report Potency for CCCCCCCCCC[Si](C)(C)CCC(=O)NC(Cc1ccc(C)cc1)c1ccccc1 (stereo unspecified) please. 2.82 µM (active)

Report Potency for OC1(c2ccc(Cl)cc2)CCN(Cc2c[nH]c3ccccc23)CC1 please. 5.01 µM (active)
